assay: Metabolic stability in Escherichia coli SQ110 DTC assessed as unchanged drug at 5 to 10 times MIC measured after 60 mins by LC-MS/MS analysis; type: ADME; details: Escherichia coli SQ110 DTC cells, read-out: Stability
valueType: remaining at 1 h (%)
Provide only the numeric value, understood in %.

Exercise: Report remaining at 1 h for CC[C@H]1OC(=O)[C@H](C)[C@@H](OC(=O)CCNCCCCNc2cc3c(cc2F)c(=O)c(C(=O)O)cn3C2CC2)[C@H](C)[C@@H](O[C@@H]2O[C@H](C)C[C@H](N(C)C)[C@H]2O)[C@](C)(OC)C[C@@H](C)/C(=N\OCC#Cc2cncc(C(=O)NC)c2)[C@H](C)[C@H]2OC(=O)O[C@@]21C please.
Solution: 84.3

====

test system: Staphylococcus aureus; test: Antibacterial activity against methicillin-resistant Staphylococcus aureus PU 20 harboring c-ermA gene incubated for 16 to 20 hrs by CLSI based broth microdilution method; type: functional; details: time 16-20 hrs
Please go through the items and note down their MIC.

Exercise: Return reported MIC; argument: CC[C@H]1OC(=O)[C@H](C)[C@@H](OC(=O)CCNCCCCNc2cc3c(cc2F)c(=O)c(C(=O)O)cn3C2CC2)[C@H](C)[C@@H](O[C@@H]2O[C@H](C)C[C@H](N(C)C)[C@H]2O)[C@](C)(OC)C[C@@H](C)/C(=N\OCC#Cc2cncc(C(=O)NC)c2)[C@H](C)[C@H]2OC(=O)O[C@@]21C
Solution: > 256 µg/mL

Exercise: Now give it for CC[C@H]1OC(=O)[C@H](C)[C@@H](OC(=O)CCNCCCCNc2cc3c(cc2F)c(=O)c(C(=O)O)cn3C2CC2)[C@H](C)[C@@H](O[C@@H]2O[C@H](C)C[C@H](N(C)C)[C@H]2O)[C@](C)(OC)C[C@@H](C)/C(=N\OCC#Cc2cncc(NC(C)=O)c2)[C@H](C)[C@H]2OC(=O)O[C@@]21C too.
Solution: > 256 µg/mL

Exercise: For CC[C@H]1OC(=O)[C@H](C)[C@@H](OC(=O)CCN2CCN(c3cc4c(cc3F)c(=O)c(C(=O)O)cn4C3CC3)CC2)[C@H](C)[C@@H](O[C@@H]2O[C@H](C)C[C@H](N(C)C)[C@H]2O)[C@](C)(OC)C[C@@H](C)/C(=N\OCCCc2cncc(C(=O)NC)c2)[C@H](C)[C@H]2OC(=O)O[C@@]21C then?
Solution: 64 µg/mL

Exercise: CC[C@H]1OC(=O)[C@H](C)[C@@H](OC(=O)CCNCCCNc2cc3c(=O)c(C(=O)O)cn(C4CC4)c3cc2Cl)[C@H](C)[C@@H](O[C@@H]2O[C@H](C)C[C@H](N(C)C)[C@H]2O)[C@](C)(OC)C[C@@H](C)/C(=N\OC)[C@H](C)[C@H]2OC(=O)O[C@@]21C , same question.
Solution: 128 µg/mL

Exercise: And for CC[C@H]1OC(=O)[C@H](C)[C@@H](OC(=O)CCNCCCCNc2cc3c(cc2F)c(=O)c(C(=O)O)cn3C2CC2)[C@H](C)[C@@H](O[C@@H]2O[C@H](C)C[C@H](N(C)C)[C@H]2O)[C@](C)(OC)C[C@@H](C)/C(=N\OC/C=C/c2ccc3c(c2)c(=O)c(C(N)=O)cn3CC)[C@H](C)[C@H]2OC(=O)O[C@@]21C ?
Solution: > 256 µg/mL

Exercise: Same thing, different compound: CC[C@H]1OC(=O)[C@H](C)[C@@H](OC(=O)CCNCCCCNc2cc3c(cc2F)c(=O)c(C(=O)O)cn3C2CC2)[C@H](C)[C@@H](O[C@@H]2O[C@H](C)C[C@H](N(C)C)[C@H]2O)[C@](C)(OC)C[C@@H](C)/C(=N\OC)[C@H](C)[C@H]2OC(=O)O[C@@]21C
Solution: 128 µg/mL

Exercise: Then this compound: C#CCO/N=C1\[C@H](C)C[C@@](C)(OC)[C@H](O[C@@H]2O[C@H](C)C[C@H](N(C)C)[C@H]2O)[C@@H](C)[C@H](OC(=O)CCN2CCN(c3cc4c(cc3F)c(=O)c(C(=O)O)cn4C3CC3)CC2)[C@@H](C)C(=O)O[C@H](CC)[C@@]2(C)OC(=O)O[C@@H]2[C@H]1C
Solution: 256 µg/mL

====

assay: Metabolic stability in human liver microsomes assessed as intrinsic clearance in liver at 1 uM incubated upto 60 mins in presence of NADPH by LC-MS/MS analysis; format: ADME, Microsome; settings: read-out: CLH
valueType: CLint scaled at 1 µM (mL/min/kg)
Lab book: enter the figure in mL/min/kg, no units written.

Exercise: Any idea what CLint scaled at 1 µM was measured for CCOc1ccc2ccc(=O)oc2c1 ?
Solution: 58.7

Exercise: Then this compound: CC[C@H]1OC(=O)[C@H](C)[C@@H](OC(=O)CCNCCCCNc2cc3c(cc2F)c(=O)c(C(=O)O)cn3C2CC2)[C@H](C)[C@@H](O[C@@H]2O[C@H](C)C[C@H](N(C)C)[C@H]2O)[C@](C)(OC)C[C@@H](C)/C(=N\OCC#Cc2cncc(C(=O)NC)c2)[C@H](C)[C@H]2OC(=O)O[C@@]21C
Solution: 2.7

Exercise: Now try CC[C@H]1OC(=O)[C@H](C)[C@@H](OC(=O)CCNCCCCCNc2cc3c(cc2F)c(=O)c(C(=O)O)cn3C2CC2)[C@H](C)[C@@H](O[C@@H]2O[C@H](C)C[C@H](N(C)C)[C@H]2O)[C@](C)(OC)C[C@@H](C)/C(=N\OC)[C@H](C)[C@H]2OC(=O)O[C@@]21C .
Solution: 21.8

====

test system: Staphylococcus aureus; assay: Selectivity ratio of MBC for methicillin-resistant Staphylococcus aureus PU 32 harboring i-ermA gene to MIC for methicillin-resistant Staphylococcus aureus PU 32 harboring i-ermA gene; assay type: functional
valueType: Selectivity ratio
# output: bare number, no unit

Exercise: If you can, please state the reported Selectivity ratio value of CC[C@H]1OC(=O)[C@H](C)[C@@H](OC(=O)CCNCCCCCNc2cc3c(cc2F)c(=O)c(C(=O)O)cn3C2CC2)[C@H](C)[C@@H](O[C@@H]2O[C@H](C)C[C@H](N(C)C)[C@H]2O)[C@](C)(OC)C[C@@H](C)/C(=N\OC)[C@H](C)[C@H]2OC(=O)O[C@@]21C .
Solution: 8

Exercise: What about this compound? CC[C@H]1OC(=O)[C@H](C)[C@@H](OC(=O)CCNCCCCCCNc2cc3c(cc2F)c(=O)c(C(=O)O)cn3C2CC2)[C@H](C)[C@@H](O[C@@H]2O[C@H](C)C[C@H](N(C)C)[C@H]2O)[C@](C)(OC)C[C@@H](C)/C(=N\OC)[C@H](C)[C@H]2OC(=O)O[C@@]21C
Solution: 4

Exercise: What would you report for CC[C@H]1OC(=O)[C@H](C)[C@@H](OC(=O)CCNCCCCNc2cc3c(cc2F)c(=O)c(C(=O)O)cn3C2CC2)[C@H](C)[C@@H](O[C@@H]2O[C@H](C)C[C@H](N(C)C)[C@H]2O)[C@](C)(OC)C[C@@H](C)/C(=N\OCC#Cc2cncc(C(=O)NC)c2)[C@H](C)[C@H]2OC(=O)O[C@@]21C ?
Solution: 1

Exercise: How about this compound: CC[C@H]1OC(=O)[C@H](C)C(=O)[C@H](C)[C@@H](O[C@@H]2O[C@H](C)C[C@H](N(C)C)[C@H]2O)[C@](C)(OC)C[C@@H](C)C(=O)[C@H](C)[C@H]2N(CCCCn3cnc(-c4cccnc4)c3)C(=O)O[C@]12C
Solution: 4

====

tested on: Staphylococcus aureus; test: Bactericidal activity against methicillin-resistant Staphylococcus aureus PU 32 harboring i-ermA gene incubated for 16 to 20 hrs by CLSI based broth microdilution method; format: functional; conditions: time 16-20 hrs
valueType: MBC

Exercise: Please look up its MBC: CC[C@H]1OC(=O)[C@H](C)[C@@H](OC(=O)CCN2CCN(c3cc4c(cc3F)c(=O)c(C(=O)O)cn4C3CC3)CC2)[C@H](C)[C@@H](O[C@@H]2O[C@H](C)C[C@H](N(C)C)[C@H]2O)[C@](C)(OC)C[C@@H](C)/C(=N\OCC#Cc2cncc(C(=O)NC)c2)[C@H](C)[C@H]2OC(=O)O[C@@]21C
Solution: > 256 mg/L

Exercise: Now consider CC[C@H]1OC(=O)[C@H](C)[C@@H](OC(=O)CCN2CCN(c3cc4c(cc3F)c(=O)c(C(=O)O)cn4C3CC3)CC2)[C@H](C)[C@@H](O[C@@H]2O[C@H](C)C[C@H](N(C)C)[C@H]2O)[C@](C)(OC)C[C@@H](C)/C(=N\OC/C=C/c2cncc(C(=O)NC)c2)[C@H](C)[C@H]2OC(=O)O[C@@]21C and answer again.
Solution: > 256 mg/L
